Listed next: entries and their corresponding phosphorylation enrichment.
Target: MERTK (UniProt Q12866)
Sequence (Q12866 whole entry, looked up): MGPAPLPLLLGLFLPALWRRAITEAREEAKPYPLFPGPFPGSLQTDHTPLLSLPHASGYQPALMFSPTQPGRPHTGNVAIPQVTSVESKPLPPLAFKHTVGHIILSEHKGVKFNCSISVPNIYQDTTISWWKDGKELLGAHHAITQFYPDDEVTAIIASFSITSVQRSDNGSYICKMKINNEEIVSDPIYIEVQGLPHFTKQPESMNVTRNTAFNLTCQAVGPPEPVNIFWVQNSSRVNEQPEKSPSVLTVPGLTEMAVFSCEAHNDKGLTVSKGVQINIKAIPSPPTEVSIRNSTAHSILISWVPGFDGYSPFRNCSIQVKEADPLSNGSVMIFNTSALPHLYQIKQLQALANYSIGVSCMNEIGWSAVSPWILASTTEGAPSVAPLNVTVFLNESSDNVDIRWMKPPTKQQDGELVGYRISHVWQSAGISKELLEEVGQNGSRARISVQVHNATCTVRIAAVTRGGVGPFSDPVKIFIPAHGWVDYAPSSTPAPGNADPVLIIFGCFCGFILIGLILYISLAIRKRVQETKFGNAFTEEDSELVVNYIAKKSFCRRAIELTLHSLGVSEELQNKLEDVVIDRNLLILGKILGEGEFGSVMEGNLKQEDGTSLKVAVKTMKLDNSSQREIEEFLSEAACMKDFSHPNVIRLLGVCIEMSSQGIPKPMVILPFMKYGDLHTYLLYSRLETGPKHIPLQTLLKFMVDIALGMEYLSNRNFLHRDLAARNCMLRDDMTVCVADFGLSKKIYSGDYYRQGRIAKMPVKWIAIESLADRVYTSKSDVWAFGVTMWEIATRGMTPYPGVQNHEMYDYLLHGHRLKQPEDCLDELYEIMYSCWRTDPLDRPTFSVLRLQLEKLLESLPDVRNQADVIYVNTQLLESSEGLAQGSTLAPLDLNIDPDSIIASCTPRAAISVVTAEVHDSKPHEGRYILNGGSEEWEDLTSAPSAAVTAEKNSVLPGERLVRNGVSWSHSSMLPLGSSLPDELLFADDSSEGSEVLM
Assay: phosphorylation enrichment, bacterial display (enrichment ratio); higher = better substrate or ligand; peptides without Tyr show the background;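 note: 11-residue human phosphosite peptides and single-mutation variants displayed on the E. coli surface, counted by deep sequencing, each peptide's frequency after selection divided by its frequency in the unselected input library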;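 note: frequency after pTyr selection over input frequency; kinase dosed for 20-30% of maximal phosphorylation in three min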
test readout: phosphorylation enrichment

>>> print(df.to_string())
                          sequence  measured_result
0    NPIGLYSAEIL [LDB3_Y202_T206I]             6.37
1    TLPAFYMENFS [GLB1_Y552_G554E]            0.947
2        VVKLAYNENDN [CAMKK2_Y183]            0.374
3         GGSSPYSRRLP [CDK13_Y351]            0.414
4         NLPGGYSGSVK [MCPH1_Y606]            0.371
5    KDDEKYLDVSR [MTM1_Y260_I264S]            0.423
6   QMVGMYASSSM [AVPR2_Y124_Y128S]            0.504
7           YLQEIYNSNNQ [FGG_Y140]            0.441
8  VVKLTYNENDN [CAMKK2_Y183_A182T]            0.467
9           STEPQYQPGEN [SRC_Y530]            0.356
